System: SW-620 colon
ASSAY_NOTES: NCI-60 one-dose screen, 48 h
SETTINGS: 10 µM unless noted
Compounds without any hit were thinned out: in the full panel of roughly 83,000, 20% have a hit. Calls of active or inactive are those of the source. How the source made its calls: active means growth percent below 10; inactive means the rest.
Can you answer with just one of these options? active, inactive

Data request: Recorded test outcome, item O=C(Nc1cccc(Cl)c1)Nc1cc(C(F)(F)F)ccc1Cl
Data returned: active

Data request: Now consider C=C(C)C1CCC2(C(=O)O)CCC3(C)C(CCC4C5(C)CCC(O)C(C)(C)C5CCC43C)C12 (configuration not stated) .
Data returned: inactive

Data request: Now consider C=CCOc1c(Br)cc(Br)cc1Br .
Data returned: inactive

Data request: Now consider C/C(=N\NC(=S)N1CCCCC1)c1ccccn1 .
Data returned: inactive

Data request: Now consider CCN(CC)CCCC(C)N/C(c1cccc(OC)c1)=c1\c(=O)[nH]n(-c2c3ccccc3nc3ccccc23)c(=O)\c1=C(/NC(C)CCCN(CC)CC)c1cccc(OC)c1 (configuration not stated) .
Data returned: active

Data request: Now consider CNCc1ccccc1CN(CC(=O)Nc1ccc2c(c1)CC1(C2)C(=O)Nc2ncccc21)C(=O)C(C)(C)C (configuration not stated) .
Data returned: inactive

Data request: Now consider CCN(CC)CCCC(C)Nc1cnc(C(=O)Nc2ccc(Cl)c3cccnc23)cn1 (configuration not stated) .
Data returned: active

Data request: Now consider O=C(Nc1ccc(Oc2ccc(NC(=O)Nc3ccccc3Cl)cc2)cc1)Nc1ccccc1Cl .
Data returned: inactive

Data request: Now consider Cc1c(O)c(=O)n(-c2ccccc2)n1C .
Data returned: inactive

Data request: Now consider COc1cc2cc(C(=O)Nc3ccccc3)c(N)nc2cc1OC .
Data returned: active

Data request: Now consider CN(CCO)c1ccc(N2Cc3ccccc3OC3=C2C(=O)c2c(O)ccc(O)c2C3=O)cn1 .
Data returned: active

Data request: Now consider CCc1oc2ccccc2c1C(=O)c1cc(I)c(O)c(I)c1 .
Data returned: inactive
